Entries annotated with measured Degradation rate (%) of ERα in MCF-7 cells
experimental system: ERα (Homo sapiens)
Sequence (P03372 whole entry): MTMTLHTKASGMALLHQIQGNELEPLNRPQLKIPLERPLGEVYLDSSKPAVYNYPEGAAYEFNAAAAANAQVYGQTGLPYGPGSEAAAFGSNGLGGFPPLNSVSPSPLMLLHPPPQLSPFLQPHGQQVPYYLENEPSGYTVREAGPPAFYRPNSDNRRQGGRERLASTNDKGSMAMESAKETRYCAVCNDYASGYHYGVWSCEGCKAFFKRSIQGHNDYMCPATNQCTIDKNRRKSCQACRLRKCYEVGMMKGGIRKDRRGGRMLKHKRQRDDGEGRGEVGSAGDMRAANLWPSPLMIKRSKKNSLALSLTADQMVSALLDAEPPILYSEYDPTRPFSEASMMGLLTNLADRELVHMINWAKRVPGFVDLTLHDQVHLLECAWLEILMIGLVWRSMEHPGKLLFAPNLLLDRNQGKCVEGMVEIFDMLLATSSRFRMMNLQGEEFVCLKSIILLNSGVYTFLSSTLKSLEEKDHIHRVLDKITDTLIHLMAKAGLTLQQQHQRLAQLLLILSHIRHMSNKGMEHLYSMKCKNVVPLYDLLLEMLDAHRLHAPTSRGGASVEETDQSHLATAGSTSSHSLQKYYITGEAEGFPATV
test method notes: Degradation of ERα in MCF-7 cells (immunoblotting, 4 h)
Format: cell-based
applied conditions: 1nM compound
Report only the number, with the unit % understood.

As a guide, the following entries are already answered.
{"compound": "O=C1CCC(N2Cc3c(ccc4c3OCC43CCN(C4CCC5(CC4)CN(c4ccc([C@@H]6c7ccc(O)cc7CC[C@@H]6c6ccccc6)cc4)C5)CC3)C2=O)C(=O)N1 (some centres unmarked)", "uom": "%", "recorded number": 37}
{"compound": "O=C1CCC(N2Cc3c(ccc4c3OCC43CCN(C4CC5(C4)CC4(CCN(c6ccc([C@@H]7c8ccc(O)cc8CC[C@@H]7c7ccccc7)cc6)CC4)C5)CC3)C2=O)C(=O)N1 (some centres unmarked)", "uom": "%", "recorded number": 8}
{"compound": "CC1CN(C2CCN(c3ccc([C@@H]4c5ccc(O)cc5CC[C@@H]4c4ccccc4)cc3)CC2)CCC1N1CCC2(CC1)COc1c2ccc2c1CN(C1CCC(=O)NC1=O)C2=O (some centres unmarked)", "uom": "%", "recorded number": 32}
{"compound": "C[C@@H]1Cc2c(ccc3[nH]ncc23)[C@@H](c2c(F)cc(N3CCC4(CCN(CC(=O)N5CCC6(CC5)COc5c6ccc6c5CN(C5CCC(=O)NC5=O)C6=O)C4)CC3)cc2F)N1CC(F)F (some centres unmarked)", "uom": "%", "recorded number": 60}

Look up and state reported Degradation rate (%) of ERα in MCF-7 cells for C[C@@H]1Cc2c([nH]c3ccccc23)[C@@H](c2c(F)cc(N3CCC(N4CC[C@@H](N5CCC6(CC5)COc5c6ccc6c5CN(C5CCC(=O)NC5=O)C6=O)[C@@H](F)C4)CC3)cc2F)N1CC(F)F (some centres unmarked)
6

Source of measurements: patent EP4656642A1
